# HPLC purity Day 0 (%) per record follows
test name: Stability investigation of the crystalline forms (HPLC purity, samples placed open and flat)
Format: physicochemical
assay context: high humidity of 90%, Day 0
Reply with just the number (in %).

> print(dat)
                                   compound      measurement.label  measured
1  COC(=O)[C@H](c1ccccc1Cl)N1CC[C@@H]2SC(=O)C=C2C1 [Example 4]  HPLC purity Day 0 (%)     99.89
2  COC(=O)[C@H](c1ccccc1Cl)N1CC[C@@H]2SC(=O)C=C2C1 (racemic) [Comparative preparation example 1, reference compound]  HPLC purity Day 0 (%)     96.89
3  COC(=O)[C@H](c1ccccc1Cl)N1CC[C@@H]2SC(=O)C=C2C1 [Example 7]  HPLC purity Day 0 (%)     99.88

Turning now to a further record.
Summary for this compound, COC(=O)[C@H](c1ccccc1Cl)N1CC[C@@H]2SC(=O)C=C2C1 [Example 5] : HPLC purity Day 0 (%) is 99.87
